Task for the reader: assign each of the following binders its reported pKd.
Biological target: equine FcRn (large alpha subunit p51) / equine beta-2-microglobulin complex, biotinylated (equine) (UniProt P30441)
Assay: SPR (Biacore), pH 6
Keep it numeric: pKd is minus log10 of the concentration in mol/L.

**Query** Supply pKd value. Item: equine IgG1 Y436Q (antibody, part only; not given: variable domains, not shown: another chain or arm of the molecule) constant: ASTTAPKVFALAPGCGTTSDSTVALGCLVSGYFPEPVKVSWNSGSLTSGVHTFPSVLQSSGFYSLSSMVTVPASTWTSETYICNVVHAASNFKVDKRIEPIPDNHQKVCDMSKCPKCPAPELLGGPSVFIFPPNPKDTLMITRTPEVTCVVVDVSQENPDVKFNWYMDGVEVRTATTRPKEEQFNSTYRVVSVLRIQHQDWLSGKEFKCKVNNQALPQPIERTITKTKGRSQEPQVYVLAPHPDELSKSKVSVTCLVKDFYPPEINIEWQSNGQPELETKYSTTQAQQDSDGSYFLYSKLSVDRNRWQQGTTFTCGVMHEALHNHQTQKNVSKNPGK
**Result** 7.84

**Query** Note down pKd recorded for equine IgG4 Y436K (antibody, part only; not given: variable domains, not shown: another chain or arm of the molecule) constant: ASTTAPKVFPLASHSAATSGSTVALGCLVSSYFPEPVTVSWNSGALTSGVHTFPSVLQSSGLYSLSSMVTVPASSLKSQTYICNVAHPASSTKVDKKIVIKECNGGCPAECLQVGPSVFIFPPKPKDVLMISRTPTVTCVVVDVGHDFPDVQFNWYVDGVETHTATTEPKQEQFNSTYRVVSVLPIQHKDWLSGKEFKCKVNNKALPAPVERTISKPTGQPREPQVYVLAPHRDELSKNKVSVTCLVKDFYPTDIDIEWKSNGQPEPETKYSTTPAQLDSDGSYFLYSKLTVETNRWQQGTTFTCAVMHEALHNHKTEKSVSKSPGK
**Result** 7.69

**Query** Consider the binder equine IgG1 M252K (antibody, part only; not given: variable domains, not shown: another chain or arm of the molecule) constant: ASTTAPKVFALAPGCGTTSDSTVALGCLVSGYFPEPVKVSWNSGSLTSGVHTFPSVLQSSGFYSLSSMVTVPASTWTSETYICNVVHAASNFKVDKRIEPIPDNHQKVCDMSKCPKCPAPELLGGPSVFIFPPNPKDTLKITRTPEVTCVVVDVSQENPDVKFNWYMDGVEVRTATTRPKEEQFNSTYRVVSVLRIQHQDWLSGKEFKCKVNNQALPQPIERTITKTKGRSQEPQVYVLAPHPDELSKSKVSVTCLVKDFYPPEINIEWQSNGQPELETKYSTTQAQQDSDGSYFLYSKLSVDRNRWQQGTTFTCGVMHEALHNHYTQKNVSKNPGK and give its recorded pKd.
**Result** 7.44

**Query** Give the reported value of pKd for this record: equine IgG1 Q311C (antibody, part only; not given: variable domains, not shown: another chain or arm of the molecule) constant: ASTTAPKVFALAPGCGTTSDSTVALGCLVSGYFPEPVKVSWNSGSLTSGVHTFPSVLQSSGFYSLSSMVTVPASTWTSETYICNVVHAASNFKVDKRIEPIPDNHQKVCDMSKCPKCPAPELLGGPSVFIFPPNPKDTLMITRTPEVTCVVVDVSQENPDVKFNWYMDGVEVRTATTRPKEEQFNSTYRVVSVLRIQHCDWLSGKEFKCKVNNQALPQPIERTITKTKGRSQEPQVYVLAPHPDELSKSKVSVTCLVKDFYPPEINIEWQSNGQPELETKYSTTQAQQDSDGSYFLYSKLSVDRNRWQQGTTFTCGVMHEALHNHYTQKNVSKNPGK
**Result** 7.80
